Tested on: Salmonella typhi
assay.name: Antimicrobial activity against Salmonella enterica subsp. enterica serovar Typhi MTCC 98 assessed as growth inhibition after 24-48 hr by NCCLS broth microdilution method
Type: functional
Record form. Attribute: log10 MIC. Fill in for each entry.
Please note: log10 values; quantity MIC; unit µg/mL.

Could you report log10 MIC for every entry in the following list?
1. Cc1ccc(Oc2nc3ccccc3cc2C2C(C#N)=C(N)OC3=C2C(=O)CCC3)cc1 (configuration not stated)
2. CC1(C)S[C@@H]2[C@H](NC(=O)[C@H](N)c3ccccc3)C(=O)N2[C@H]1C(=O)O [AMPICILLIN]
3. O=C(N[C@H](CO)[C@H](O)c1ccc([N+](=O)[O-])cc1)C(Cl)Cl [CHLORAMPHENICOL]

[A]
2.70
2.00
1.70

----------
Test system: Salmonella typhi
assay.name: Antimicrobial activity against Salmonella enterica subsp. enterica serovar Typhi MTCC 98 assessed as growth inhibition after 24-48 hr by NCCLS broth microdilution method
Assay type: functional
observation.type: MIC (µg/mL)
Numbers only, in µg/mL.

Reference set (5 entries):
COc1ccc2nc(Oc3ccccc3)c(C3C(C#N)=C(N)OC4=C3C(=O)CC(C)(C)C4)cc2c1 (centres undefined); 500
CCn1cc(C(=O)O)c(=O)c2cc(F)c(N3CCNCC3)cc21; 10
O=C(O)c1cn(C2CC2)c2cc(N3CCNCC3)c(F)cc2c1=O; 25
N#CC1=C(N)OC2=C(C(=O)CCC2)C1c1cc2ccccc2nc1Oc1ccc(F)cc1 (centres undefined); 200
COc1ccc2nc(Oc3ccc(C)cc3)c(C3C(C#N)=C(N)OC4=C3C(=O)CC(C)(C)C4)cc2c1 (centres undefined); 100

Could you report MIC for every entry in the following list?
1. COc1ccc(Oc2nc3ccc(OC)cc3cc2C2C(C#N)=C(N)OC3=C2C(=O)CC(C)(C)C3)cc1 (centres undefined)
2. N#CC1=C(N)OC2=C(C(=O)CCC2)C1c1cc2ccccc2nc1Oc1ccccc1 (centres undefined)
3. COc1ccc2nc(Oc3ccc(F)cc3)c(C3C(C#N)=C(N)OC4=C3C(=O)CC(C)(C)C4)cc2c1 (centres undefined)
4. COc1ccc(Oc2nc3ccccc3cc2C2C(C#N)=C(N)OC3=C2C(=O)CCC3)cc1 (centres undefined)

[A]
[250, 250, 100, 250]
